# Species on record: Rattus norvegicus
# assay explanation: Open TG-GATES - Regimen: Single
# Assay type: toxicity, organism-based, Sprague-Dawley
# Parameters: regimen Single, gender Male, age 6 weeks
# condition label: in vivo, po, 100 mg/kg, 24 h, tissue Plasma, route gavage, dose level Low
experimental endpoint: ALT (IU/L)
Give just the numeric value; IU/L need not be written.

Some compounds with known ALT results, for comparison:
>  <compound>
NC(N)=Nc1nc(CSCCC(N)=NS(N)(=O)=O)cs1

>  <ALT [IU/L]>
40.6

$$$$
>  <compound>
COC1=CC(=O)C[C@@H](C)[C@]12Oc1c(Cl)c(OC)cc(OC)c1C2=O

>  <ALT [IU/L]>
41.8

$$$$
>  <compound>
CCOC(=O)CCC(=O)O[C@H]1[C@H](O[C@@H]2[C@@H](C)[C@H](O[C@H]3C[C@@](C)(OC)[C@@H](O)[C@H](C)O3)[C@@H](C)C(=O)O[C@H](CC)[C@@](C)(O)[C@H](O)[C@@H](C)C(=O)[C@H](C)C[C@@]2(C)O)O[C@H](C)C[C@@H]1N(C)C [ERYTHROMYCIN ETHYLSUCCINATE]

>  <ALT [IU/L]>
43.4

$$$$

Next up:
input: Which value of ALT has been reported for COc1ccc2[nH]c([S+]([O-])Cc3ncc(C)c(OC)c3C)nc2c1 (centres undefined) in the records?
output: 28.4

----------
Overview of reported Plat across a group of compounds:
# Species on record: Rattus norvegicus
# assay explanation: Open TG-GATES - Regimen: Daily Repeat
# Format: toxicity, organism-based, Sprague-Dawley
# Set-up: regimen Daily Repeat, gender Male, age 6 weeks
# condition label: in vivo, po, 100 mg/kg, 72 h, tissue Blood, route gavage, dose level Low, time 3 day
Number only, in x10_4/uL; omit the unit.

In the examples that follow, each entry is paired with its recorded Plat.
>  <compound>
CCOC(=O)CCC(=O)O[C@H]1[C@H](O[C@@H]2[C@@H](C)[C@H](O[C@H]3C[C@@](C)(OC)[C@@H](O)[C@H](C)O3)[C@@H](C)C(=O)O[C@H](CC)[C@@](C)(O)[C@H](O)[C@@H](C)C(=O)[C@H](C)C[C@@]2(C)O)O[C@H](C)C[C@@H]1N(C)C [ERYTHROMYCIN ETHYLSUCCINATE]

>  <Plat (x10_4/uL)>
120.2

$$$$
>  <compound>
COc1ccc2[nH]c([S+]([O-])Cc3ncc(C)c(OC)c3C)nc2c1 (stereo not given) [OMEPRAZOLE]

>  <Plat (x10_4/uL)>
127.7

$$$$
>  <compound>
NC(N)=Nc1nc(CSCCC(N)=NS(N)(=O)=O)cs1 [FAMOTIDINE]

>  <Plat (x10_4/uL)>
124.1

$$$$
>  <compound>
COC1=CC(=O)C[C@@H](C)[C@]12Oc1c(Cl)c(OC)cc(OC)c1C2=O [GRISEOFULVIN]

>  <Plat (x10_4/uL)>
116.4

$$$$

input: Can you share its Plat? I mean this compound: CCOc1ccc(NC(=O)CC(C)O)cc1 (stereo not given) [BUCETIN]
output: 126.2

----------
Listed here are molecules together with their documented CRE.
# Species: Rattus norvegicus
# assay explanation: Open TG-GATES - Regimen: Daily Repeat
# Format: toxicity, organism-based, Sprague-Dawley
# Parameters: regimen Daily Repeat, gender Male, age 6 weeks
# condition label: in vivo, po, 300 mg/kg, […], tissue Plasma, route gavage, dose level Middle, time 14 day
Your answer is read as mg/dL, so omit the unit and give the number.

>  <molecule>
CCOC(=O)CCC(=O)O[C@H]1[C@H](O[C@@H]2[C@@H](C)[C@H](O[C@H]3C[C@@](C)(OC)[C@@H](O)[C@H](C)O3)[C@@H](C)C(=O)O[C@H](CC)[C@@](C)(O)[C@H](O)[C@@H](C)C(=O)[C@H](C)C[C@@]2(C)O)O[C@H](C)C[C@@H]1N(C)C [ERYTHROMYCIN ETHYLSUCCINATE]

>  <units of measure>
mg/dL

>  <reading>
0.2

$$$$
>  <molecule>
COC1=CC(=O)C[C@@H](C)[C@]12Oc1c(Cl)c(OC)cc(OC)c1C2=O

>  <units of measure>
mg/dL

>  <reading>
0.6

$$$$
>  <molecule>
COc1ccc2[nH]c([S+]([O-])Cc3ncc(C)c(OC)c3C)nc2c1 (stereo not given)

>  <units of measure>
mg/dL

>  <reading>
0.5

$$$$
>  <molecule>
CCOc1ccc(NC(=O)CC(C)O)cc1 (stereo not given)

>  <units of measure>
mg/dL

>  <reading>
0.2

$$$$

For the next question, use this molecule.
input: Could you tell me which CRE is on file for `NC(N)=Nc1nc(CSCCC(N)=NS(N)(=O)=O)cs1` ?
output: 0.5
